pIC50: −log10 of the molar value.
Literature survey of pIC50 (system: Vascular endothelial growth factor receptor 2 (Homo sapiens)).

# Molecule Smiles, Assay Endpoint, Test Result
data = [
    ("O=C(Nc1cccc(Oc2cc(-c3cnn(Cc4ccccc4)c3)ncn2)c1)Nc1ccc(Cl)c(C(F)(F)F)c1", "pIC50", "< 5.00"),
]

Input: Param readout = pIC50; param system = Vascular endothelial growth factor receptor 2 (Homo sapiens); param query = O=C(Nc1cccnc1)N1CCc2nc(Nc3ccccc3)ncc2C1 ; response: value
Output: < 5.00

Input: Param readout = pIC50; param system = Vascular endothelial growth factor receptor 2 (Homo sapiens); param query = Cc1cccc(Nc2nc3c(NCCN)nccn3n2)c1 ; response: value
Output: 4.30 to 5.52

Input: Param readout = pIC50; param system = Vascular endothelial growth factor receptor 2 (Homo sapiens); param query = Cn1cc(-c2cnc3[nH]cc(C(=O)c4cccc(NS(=O)(=O)c5cccc(OC(F)(F)F)c5)c4)c3c2)cn1 ; response: value
Output: ≥ 5.00

Input: Param readout = pIC50; param system = Vascular endothelial growth factor receptor 2 (Homo sapiens); param query = COCCOc1cc2nccc(Oc3ccc(NC(=O)c4cnc(C)c(C5=CCCC5)c4O)cc3F)c2nc1OC ; response: value
Output: ≥ 7.00

Input: Param readout = pIC50; param system = Vascular endothelial growth factor receptor 2 (Homo sapiens); param query = COc1cc2ncnc(Oc3ccc(NC(=O)NC(C)C)c(Cl)c3)c2c2c1OCCO2 ; response: value
Output: > 7.30

Input: Param readout = pIC50; param system = Vascular endothelial growth factor receptor 2 (Homo sapiens); param query = Cc1cc(OCCCN2CCN(C(C)C)CC2)c2oc3cc(Oc4ccc(CCC(=O)NC5CCCC5)nc4)ccc3c(=O)c2c1 ; response: value
Output: 5.00 to 6.00

Input: Param readout = pIC50; param system = Vascular endothelial growth factor receptor 2 (Homo sapiens); param query = Cc1nc(COc2ccc(F)c(C(=O)c3c[nH]c4ncc(Cl)cc34)c2F)c(C)o1 ; response: value
Output: ≥ 5.00

---

pIC50: −log10 of the molar value.
Literature survey of pIC50 (system: Vascular endothelial growth factor receptor 2 (Homo sapiens, UniProt P35968)).

Look over these answered cases.
# Molecule Smiles, pIC50
records = [
    ("CCCS(=O)(=O)Nc1ccc(F)c(C(=O)c2c[nH]c3ncc(-c4ccc(C#CCN(CC)CC)nc4)cc23)c1F", "≥ 5.00"),
    ("CC(F)(F)c1ccc(F)c(NC(=O)Nc2ccc(Oc3ccnc(NC(=O)C4CC4)c3)cc2F)c1", 8.04),
    ("COCCOc1cc2ncnc(Nc3ccc(NC(=O)Nc4cc(C)no4)c(Cl)c3)c2c2c1OCCO2", "> 7.30"),
    ("COc1cc(OC)cc(N(CC2CC2)c2ccc3ncc(-c4nccn4C)nc3c2)c1", "< 5.00"),
    ("CS(=O)(=O)c1ccc(Oc2cnc3[nH]cc(C(=O)c4ccc(F)cc4Cl)c3c2)cc1", "≥ 5.00"),
]

Input: Param readout = pIC50; param system = Vascular endothelial growth factor receptor 2 (Homo sapiens, UniProt P35968); param query = C[C@@H](Nc1ncnc2[nH]c(-c3ccc(OCCCCCCC(=O)NO)cc3)cc12)c1ccc(F)cc1 ; response: value
Output: 5.00 to 6.00

Input: Param readout = pIC50; param system = Vascular endothelial growth factor receptor 2 (Homo sapiens, UniProt P35968); param query = COc1cc2nccc(Oc3ccc(NC(=O)c4c5n(c(C)c(C6=CCCCC6)c4=O)CCOC5)cc3F)c2nc1OC ; response: value
Output: ≥ 7.00

Input: Param readout = pIC50; param system = Vascular endothelial growth factor receptor 2 (Homo sapiens, UniProt P35968); param query = Cc1cc(Oc2cc(NC(=O)C3CC3)ncn2)ccc1NC(=O)Nc1cc(OC(F)(F)F)ccc1F ; response: value
Output: 8.09

Input: Param readout = pIC50; param system = Vascular endothelial growth factor receptor 2 (Homo sapiens, UniProt P35968); param query = O=C(Nc1cccc(C(F)(F)F)c1)Nc1ncnc2nn3ccccc3c12 ; response: value
Output: 6.00 to 7.00

Input: Param readout = pIC50; param system = Vascular endothelial growth factor receptor 2 (Homo sapiens, UniProt P35968); param query = Oc1ccccc1-c1c[nH]c2ncccc12 ; response: value
Output: ≥ 5.00

Input: Param readout = pIC50; param system = Vascular endothelial growth factor receptor 2 (Homo sapiens, UniProt P35968); param query = COCCOCCOCCOCCOCCOCCOCCOCCOCCNC(=O)c1c(C)[nH]c(/C=C2\C(=O)Nc3ccc(F)cc32)c1C ; response: value
Output: 6.52

Input: Param readout = pIC50; param system = Vascular endothelial growth factor receptor 2 (Homo sapiens, UniProt P35968); param query = c1ccc(Cc2nc3ccc(Nc4ncnc5nn6ccccc6c45)cc3[nH]2)cc1 ; response: value
Output: < 5.00
